Origin of measurements: patent US8188078B2

Let's look at some compounds and their measured pIC50.
- TARGET_OF_ASSAY: UniProt:Q04912
pIC50: −log10 of the molar value.

# COMPOUND, EXPERIMENTAL_RESULT
measured = [
    ("CC(Oc1cc2sc(NC(=O)NCCCO)nc2cc1F)c1c(Cl)ccc(F)c1Cl (centres unmarked) [Example 105]", "> 6.30"),
    ("CC(Oc1cc2[nH]c(NC(=O)NCCN3CCOCC3)nc2cc1F)c1c(Cl)ccc(F)c1Cl (centres unmarked) [Example 6]", "> 6.30"),
    ("CC(Oc1cc2sc(NC(=O)NCCN(C)C(=O)OC(C)(C)C)nc2cc1F)c1c(Cl)ccc(F)c1Cl (centres unmarked) [Example 95]", "5.00 to 6.30"),
    ("CC(Oc1cc2sc(NC(=O)NCCN3CCN(C)CC3)nc2cc1F)c1c(Cl)ccc(F)c1Cl (single isomer, unassigned) [Example 76]", "> 6.30"),
]

Here is another compound to look at.
Q: Identify pIC50 associated with the compound O=C(NCCN1CCOCC1)Nc1nc2ccc(OCc3c(F)cccc3Cl)cc2s1 [Example 15]
Result: 5.00 to 6.30

---

- TARGET_OF_ASSAY: MET (Homo sapiens, UniProt P08581)
- Construct: endogenous in cells
- Sequence (P08581 25-1390): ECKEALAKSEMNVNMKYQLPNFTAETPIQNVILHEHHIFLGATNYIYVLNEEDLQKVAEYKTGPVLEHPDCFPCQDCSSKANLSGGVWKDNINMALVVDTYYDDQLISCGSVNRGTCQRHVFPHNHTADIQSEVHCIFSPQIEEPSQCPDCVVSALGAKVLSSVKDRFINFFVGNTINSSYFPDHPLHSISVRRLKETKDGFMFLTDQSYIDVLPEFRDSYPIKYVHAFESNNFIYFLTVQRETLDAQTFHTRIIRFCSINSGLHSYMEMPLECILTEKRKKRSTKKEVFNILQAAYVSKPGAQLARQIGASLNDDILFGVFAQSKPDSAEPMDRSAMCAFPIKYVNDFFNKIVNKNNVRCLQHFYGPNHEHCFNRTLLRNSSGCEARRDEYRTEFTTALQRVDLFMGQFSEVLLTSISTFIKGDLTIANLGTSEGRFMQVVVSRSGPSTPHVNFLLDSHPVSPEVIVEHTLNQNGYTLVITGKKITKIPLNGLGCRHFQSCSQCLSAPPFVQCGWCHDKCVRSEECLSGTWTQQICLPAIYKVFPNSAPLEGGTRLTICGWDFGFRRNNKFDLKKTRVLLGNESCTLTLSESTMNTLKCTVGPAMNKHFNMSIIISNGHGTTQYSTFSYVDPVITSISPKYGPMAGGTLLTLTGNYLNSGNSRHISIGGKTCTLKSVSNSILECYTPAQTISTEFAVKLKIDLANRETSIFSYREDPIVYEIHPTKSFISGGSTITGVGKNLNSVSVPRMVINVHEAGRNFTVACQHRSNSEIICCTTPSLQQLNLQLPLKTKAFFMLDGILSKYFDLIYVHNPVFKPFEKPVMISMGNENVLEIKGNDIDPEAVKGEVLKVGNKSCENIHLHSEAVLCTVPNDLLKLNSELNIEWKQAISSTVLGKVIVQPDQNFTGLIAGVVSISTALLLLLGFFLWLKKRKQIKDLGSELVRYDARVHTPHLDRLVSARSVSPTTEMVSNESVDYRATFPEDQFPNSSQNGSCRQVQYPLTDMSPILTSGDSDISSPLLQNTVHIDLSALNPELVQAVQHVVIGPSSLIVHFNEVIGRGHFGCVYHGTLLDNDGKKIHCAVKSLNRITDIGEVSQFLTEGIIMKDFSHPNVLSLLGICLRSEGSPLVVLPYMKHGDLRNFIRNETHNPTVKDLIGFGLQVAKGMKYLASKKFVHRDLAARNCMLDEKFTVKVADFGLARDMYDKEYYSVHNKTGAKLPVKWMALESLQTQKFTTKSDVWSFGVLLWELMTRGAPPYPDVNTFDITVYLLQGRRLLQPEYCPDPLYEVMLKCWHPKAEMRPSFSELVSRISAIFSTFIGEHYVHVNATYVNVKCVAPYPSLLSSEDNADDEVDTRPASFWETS
- TEST: Test C: inhibition of the autophosphorylation of MET, ELISA technique (pppY1230, 1234, 1235), MKN45 cells
Measured IC50, listed per entry for reference.

# COMPOUND, QUANTITY_MEASURED, EXPERIMENTAL_RESULT
records = [
    ("CC(Oc1ccc2nc(NC(=O)NCCN3CCNCC3)sc2c1)c1c(Cl)ccc(F)c1Cl.O=C(O)C(F)(F)F (stereo not shown) [Example 37, trifluoroacetate]", "IC50", "< 500 nM"),
    ("CC(Oc1cc2sc(NC(=O)NCCn3cccc3)nc2cc1F)c1c(Cl)ccc(F)c1Cl (stereo not shown)", "IC50", "500 to 10000 nM"),
    ("CC(Oc1cc2sc(NC(=O)NCCOCC3CC3)nc2cc1F)c1c(Cl)ccc(F)c1Cl (stereo not shown)", "IC50", "500 to 10000 nM"),
]

Continue with the compound presented below.
Q: Give IC50 for the following compound: CC(Oc1ccc2nc(NC(=O)NCCN3CCOCC3)sc2c1)c1c(Cl)ccc(F)c1Cl (stereo not shown) [Example 24]
Result: < 500 nM

---

Test system RON (Homo sapiens, UniProt Q04912), IC50 listed for each of the compounds.
Where a name gives a salt, the structure may show the parent alone.

See these solved cases before continuing.
# COMPOUND, TARGET_OF_ASSAY, EXPERIMENTAL_RESULT
measured = [
    ("Cc1ccc(F)c(C(C)Oc2ccc3nc(NC(=O)NCCN4CCOCC4)sc3c2)c1F (stereo not shown) [Example 123]", "RON (Homo sapiens, UniProt Q04912)", "500 to 10000 nM"),
    ("CC(Oc1ccc2nc(NC(=O)NCc3ccccn3)sc2c1)c1c(Cl)ccc(F)c1Cl (stereo not shown) [Example 58]", "RON (Homo sapiens, UniProt Q04912)", "500 to 10000 nM"),
    ("CC(Oc1cc2sc(NC(=O)NCCOCC3CC3)nc2cc1F)c1c(Cl)ccc(F)c1Cl (stereo not shown) [Example 103]", "RON (Homo sapiens, UniProt Q04912)", "500 to 10000 nM"),
    ("CC(Oc1ccc2nc(NC(=O)NCCN3CCCC3)sc2c1)c1c(Cl)ccc(Cl)c1Cl (stereo not shown) [Example 125]", "RON (Homo sapiens, UniProt Q04912)", "500 to 10000 nM"),
    ("CC(Oc1ccc2nc(NC(=O)NCCN3CCOCC3)[nH]c2c1)c1c(Cl)ccc(F)c1Cl (stereo not shown) [Example 4, trifluoroacetate]", "RON (Homo sapiens, UniProt Q04912)", "< 500 nM"),
]

Q: Consider the compound CC(Oc1ccc2nc(NC(=O)NCCN3CCN(C)CC3)sc2c1)c1c(F)ccc(Cl)c1Cl (single isomer, unassigned) [Example 109] tested on RON (Homo sapiens, UniProt Q04912); state its IC50.
Sequence (Q04912 25-1400): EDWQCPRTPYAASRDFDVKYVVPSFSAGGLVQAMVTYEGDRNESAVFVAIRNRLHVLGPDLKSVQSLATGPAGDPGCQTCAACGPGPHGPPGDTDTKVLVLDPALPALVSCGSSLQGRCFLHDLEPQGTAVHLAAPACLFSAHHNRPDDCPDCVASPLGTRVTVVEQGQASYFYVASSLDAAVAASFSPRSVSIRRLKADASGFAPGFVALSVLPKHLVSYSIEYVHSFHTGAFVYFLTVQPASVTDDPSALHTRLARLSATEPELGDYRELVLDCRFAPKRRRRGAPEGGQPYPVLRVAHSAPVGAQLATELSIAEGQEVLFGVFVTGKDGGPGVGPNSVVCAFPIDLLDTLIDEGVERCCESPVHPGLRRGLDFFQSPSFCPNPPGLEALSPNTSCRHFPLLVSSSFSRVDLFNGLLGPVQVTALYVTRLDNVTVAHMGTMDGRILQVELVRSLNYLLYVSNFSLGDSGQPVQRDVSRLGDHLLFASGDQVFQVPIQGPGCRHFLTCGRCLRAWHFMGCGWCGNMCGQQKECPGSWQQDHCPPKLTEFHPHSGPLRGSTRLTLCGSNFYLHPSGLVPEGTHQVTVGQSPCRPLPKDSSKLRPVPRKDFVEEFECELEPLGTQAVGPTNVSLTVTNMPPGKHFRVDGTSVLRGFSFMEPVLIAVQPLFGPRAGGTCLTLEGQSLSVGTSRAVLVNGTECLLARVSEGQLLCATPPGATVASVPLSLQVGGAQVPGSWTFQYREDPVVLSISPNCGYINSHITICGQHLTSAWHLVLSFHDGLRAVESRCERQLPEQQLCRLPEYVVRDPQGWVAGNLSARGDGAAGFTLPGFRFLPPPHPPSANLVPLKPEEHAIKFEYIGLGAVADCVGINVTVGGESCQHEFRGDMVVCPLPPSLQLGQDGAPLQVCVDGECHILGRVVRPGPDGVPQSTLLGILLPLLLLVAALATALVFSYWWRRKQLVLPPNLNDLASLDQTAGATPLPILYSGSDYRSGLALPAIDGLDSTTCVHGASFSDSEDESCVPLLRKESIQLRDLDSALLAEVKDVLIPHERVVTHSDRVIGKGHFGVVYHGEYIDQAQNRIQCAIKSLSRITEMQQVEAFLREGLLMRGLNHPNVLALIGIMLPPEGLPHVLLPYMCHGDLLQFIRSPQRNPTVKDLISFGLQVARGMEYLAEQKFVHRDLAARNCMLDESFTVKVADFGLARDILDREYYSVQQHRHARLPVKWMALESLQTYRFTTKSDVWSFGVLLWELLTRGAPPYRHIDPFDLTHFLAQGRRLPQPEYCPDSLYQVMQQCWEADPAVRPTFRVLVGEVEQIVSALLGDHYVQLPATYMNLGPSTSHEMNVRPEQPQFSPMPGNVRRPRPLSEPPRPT
Result: < 500 nM

Q: # return IC50 for CC(Oc1ccc2nc(NC(=O)NCCN3CCC(Cc4ccccc4)CC3)sc2c1)c1c(Cl)ccc(F)c1Cl (stereo not shown) [Example 34] , test system: RON (Homo sapiens, UniProt Q04912)
Result: 500 to 10000 nM

---

- TARGET_OF_ASSAY: c-MET (Homo sapiens, UniProt P08581)
- Construct: The recombinant DNA His-Tev-MET (956-1390) in pFastBac(Invitrogen); His (N, cleaved yes); Tev (TEV protease site) (N, cleaved yes); made in house; host or cells: SF21 insect cells (baculovirus, pFastBac)
- Sequence (P08581 956-1390): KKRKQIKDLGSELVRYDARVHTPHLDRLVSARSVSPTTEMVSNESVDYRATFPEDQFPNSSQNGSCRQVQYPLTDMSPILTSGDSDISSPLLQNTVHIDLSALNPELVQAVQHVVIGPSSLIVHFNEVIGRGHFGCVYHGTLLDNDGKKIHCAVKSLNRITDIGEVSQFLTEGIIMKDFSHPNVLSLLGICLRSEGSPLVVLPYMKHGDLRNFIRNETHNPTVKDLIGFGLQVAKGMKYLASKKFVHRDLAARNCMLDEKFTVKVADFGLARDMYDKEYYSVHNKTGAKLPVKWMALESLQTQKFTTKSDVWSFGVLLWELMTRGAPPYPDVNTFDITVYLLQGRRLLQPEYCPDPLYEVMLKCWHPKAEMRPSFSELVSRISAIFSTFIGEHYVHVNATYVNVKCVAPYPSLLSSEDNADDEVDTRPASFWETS
- TEST: Test A: HTRF Met test in 96-well format
- Format: biochemical
Measured IC50 accompanies every entry in the list below.

Q: Identify measured IC50 corresponding to Cc1cc(COc2ccc3nc(NC(=O)NCCN4CCOCC4)sc3c2)n(C)n1 [Example 20]
Result: 100 to 10000 nM

Q: Tell me its IC50 given O=C(NCCN1CCOCC1)Nc1nc2ccc(OCc3c(Cl)cccc3Cl)cc2[nH]1 [Example 1] as the entry.
Result: < 100 nM

Q: Quote IC50 reported for CC(Oc1ccc2nc(NC(=O)NCCN3C(C)CCCC3C)sc2c1)c1c(Cl)ccc(F)c1Cl (centres unmarked) [Example 56] please.
Result: < 100 nM

Q: Name the recorded IC50 of the molecule listed here: CC(Oc1ccc2nc(NC(=O)NCCN3CCOCC3)sc2c1)c1ccccc1 (centres unmarked) [Example 14]
Result: 100 to 10000 nM

Q: Recall and state the measured IC50 for CC(Oc1cc2sc(NC(=O)NCCN3CCOCC3)nc2cc1F)c1c(F)ccc(Cl)c1Cl (centres unmarked) [Example 111] .
Result: < 100 nM

Q: Specify reported IC50 for the molecule shown: CC(Oc1ccc2nc(NC(=O)NCCN3CCOCC3)sc2c1)c1c(F)ccc(F)c1F (centres unmarked) [Example 60]
Result: < 100 nM

Q: Supply reported IC50 belonging to this molecule: CC(Oc1cc2sc(NC(=O)NCCN3CCOCC3)nc2cc1F)c1c(F)ccc(Cl)c1Cl (single isomer, unassigned) [Example 112]
Result: < 100 nM

Q: Find the measured IC50 of CC(Oc1cc2sc(NC(=O)NCCOCc3ccccc3)nc2cc1F)c1c(Cl)ccc(F)c1Cl (centres unmarked) [Example 97] and report it.
Result: < 100 nM

---

- TARGET_OF_ASSAY: MET (Homo sapiens)
- Construct: endogenous in cells
- TEST: Test C: inhibition of the autophosphorylation of MET, ELISA technique (pppY1230, 1234, 1235), MKN45 cells
pIC50: −log10 of the molar value.
QUANTITY_MEASURED: pIC50

Solved cases (5 shown):
# COMPOUND, TARGET_OF_ASSAY, pIC50
data = [
    ("CC(Oc1ccc2nc(NC(=O)NCc3ccncc3)sc2c1)c1c(Cl)ccc(F)c1Cl (stereo not shown)", "MET (Homo sapiens)", "5.00 to 6.30"),
    ("CC(Oc1ccc2nc(NC(=O)NCCC3CCN(Cc4ccccc4)CC3)sc2c1)c1c(Cl)ccc(F)c1Cl (stereo not shown)", "MET (Homo sapiens)", "> 6.30"),
    ("CC(Oc1ccc2nc(NC(=O)C3CC3)sc2c1)c1c(Cl)ccc(F)c1Cl (stereo not shown)", "MET (Homo sapiens)", "> 6.30"),
    ("CC(Oc1ccc2nc(NC(=O)NCCN3CCN(C)CC3)sc2c1)c1c(F)ccc(Cl)c1Cl (stereo not shown) [Example 108]", "MET (Homo sapiens)", "> 6.30"),
    ("COCCN(C)C(=O)Nc1nc2cc(F)c(OC(C)c3c(Cl)ccc(F)c3Cl)cc2s1 (stereo not shown)", "MET (Homo sapiens)", "5.00 to 6.30"),
]

Q: Return the recorded pIC50 value; entry: CCN(CC)CCCNC(=O)Nc1nc2ccc(OC(C)c3c(Cl)ccc(F)c3Cl)cc2s1 (stereo not shown)
Result: > 6.30

Q: Provide measured pIC50 value, entry: CC(Oc1cc2[nH]c(NC(=O)NCCN3CCOCC3)nc2cc1F)c1c(Cl)ccc(F)c1Cl (stereo not shown)
Result: > 6.30

Q: Please list pIC50 recorded for the compound CC(Oc1cc2sc(NC(=O)NCCOCc3ccccc3)nc2cc1F)c1c(Cl)ccc(F)c1Cl (stereo not shown)
Result: 5.00 to 6.30

Q: For CC(Oc1ccc2nc(NC(=O)CCCN3CCOCC3)sc2c1)c1c(Cl)ccc(F)c1Cl (stereo not shown) , write its pIC50.
Result: 5.00 to 6.30

Q: Give reported pIC50 value for CC(Oc1cc2sc(NC(=O)NCCN3CCN(C)CC3)nc2cc1F)c1c(Cl)ccc(F)c1Cl (single isomer, unassigned) [Example 76]
Result: > 6.30

Q: Give reported pIC50 value for CC(C)OCCNC(=O)Nc1nc2cc(F)c(OC(C)c3c(Cl)ccc(F)c3Cl)cc2s1 (stereo not shown)
Result: > 6.30

Q: Name the recorded pIC50 of the item CC(Oc1cc2sc(NC(=O)NCCN3CCCC3)nc2cc1F)c1c(F)ccc(Cl)c1Cl (single isomer, unassigned) [Example 119] in your answer.
Result: > 6.30

Q: Report pIC50 for COCCNC(=O)Nc1nc2cc(F)c(OC(C)c3c(Cl)ccc(F)c3Cl)cc2s1 (stereo not shown)
Result: > 6.30

Q: Give pIC50 for CC(Oc1cc2sc(NC(=O)NCCO)nc2cc1F)c1c(Cl)ccc(F)c1Cl (single isomer, unassigned) [Example 99]
Result: > 6.30

Q: # return recorded pIC50 for entry CC(Oc1ccc2nc(NC(=O)NCCN3CCCC3)sc2c1)c1c(Cl)ccc(F)c1Cl (stereo not shown)
Result: > 6.30
